Parameter 'readout' = pIC50; parameter 'system' = Glycogen synthase kinase-3 beta (Homo sapiens, UniProt P49841).
Sequence (P49841 whole entry): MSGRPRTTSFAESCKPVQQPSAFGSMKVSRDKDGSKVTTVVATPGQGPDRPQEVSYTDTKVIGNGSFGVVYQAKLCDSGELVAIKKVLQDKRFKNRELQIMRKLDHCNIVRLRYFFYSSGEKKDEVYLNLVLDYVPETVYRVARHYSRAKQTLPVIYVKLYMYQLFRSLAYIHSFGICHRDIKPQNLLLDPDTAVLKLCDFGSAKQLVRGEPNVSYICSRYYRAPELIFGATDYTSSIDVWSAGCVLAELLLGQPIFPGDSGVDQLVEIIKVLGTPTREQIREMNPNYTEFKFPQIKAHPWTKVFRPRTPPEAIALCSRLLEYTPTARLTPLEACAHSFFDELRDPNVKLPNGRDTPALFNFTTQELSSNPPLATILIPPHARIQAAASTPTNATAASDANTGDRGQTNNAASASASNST
Scale: negative log10 of molar concentration, which is what pIC50 denotes.

>>> reported_result("COc1cc(-c2ccc3c(-c4nc5ccccc5[nH]4)n[nH]c3c2)ccc1O")
6.50
>>> reported_result("NC1=NC(=O)C(=C2CCNC(=O)c3[nH]ccc32)N1")
6.77

# input for lookup
Which pIC50 is reported with Glycogen synthase kinase-3 beta (Homo sapiens, UniProt P49841) for this entry: c1ccc2[nH]c(-c3n[nH]c4ccccc34)nc2c1 ?
6.13

----------
Target: 3-phosphoinositide-dependent protein kinase 1 (Homo sapiens)
Sequence (O15530 whole entry): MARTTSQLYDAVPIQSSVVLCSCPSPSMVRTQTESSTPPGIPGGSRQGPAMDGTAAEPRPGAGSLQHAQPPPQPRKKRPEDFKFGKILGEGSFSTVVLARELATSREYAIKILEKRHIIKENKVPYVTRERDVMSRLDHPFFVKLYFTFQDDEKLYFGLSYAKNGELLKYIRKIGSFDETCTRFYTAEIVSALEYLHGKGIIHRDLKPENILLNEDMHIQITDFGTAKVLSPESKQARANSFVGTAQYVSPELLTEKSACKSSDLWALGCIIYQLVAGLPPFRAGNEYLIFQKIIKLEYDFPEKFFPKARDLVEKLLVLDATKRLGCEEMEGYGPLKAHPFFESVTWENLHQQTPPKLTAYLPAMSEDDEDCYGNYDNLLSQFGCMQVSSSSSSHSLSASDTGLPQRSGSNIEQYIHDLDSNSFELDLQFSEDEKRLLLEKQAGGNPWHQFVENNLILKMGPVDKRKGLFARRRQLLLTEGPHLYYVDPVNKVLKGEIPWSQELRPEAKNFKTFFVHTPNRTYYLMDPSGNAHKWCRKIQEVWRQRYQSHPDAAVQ
Quantity kind: IC50

>>> reported_result("c1ccc2[nH]c(-c3n[nH]c4ccccc34)nc2c1 [2-(1H-indazol-3-yl)-1H-1,3-benzodiazole]")
"2710 nM"

Given the molecule NC1=NC(=O)C(=C2CCNC(=O)c3[nH]ccc32)N1 [B722657K110] , what is its reported IC50?
8830 nM

Given the molecule COc1cc(-c2ccc3c(-c4nc5ccccc5[nH]4)n[nH]c3c2)ccc1O , what is its reported IC50?
443 nM

Reference source: BindingDB's records for doi:10.1016/j.bmc.2005.10.022
